Provide the recorded Relative peak area, plateable hepatocytes, Mk for the entries that follow.
test system: plateable monkey hepatocytes; test: Metabolite identification in plateable monkey hepatocytes; format: in vitro ADME; conditions: 10 μM metoprolol, 72 hours
Answers are plain numbers, in %.

- compound: "CC(C)NCC(O)COc1ccc(C(=O)O)cc1 (centres unmarked)"
  data-value: 0.2
- compound: "NCC(O)COc1ccc(CCO)cc1 (centres unmarked)"
  data-value: 0.1
- compound: "COCC(O)c1ccc(OCC(O)CNC(C)C)cc1 (stereo not drawn) [M10, α-hydroxy-metoprolol]"
  data-value: 5.6
- compound: "CC(C)NCC(O)COc1ccc(CCO)cc1 (centres unmarked)"
  data-value: 0.1

Consider the additional compound presented here.
Request: Tell me the measured Relative peak area, plateable hepatocytes, Mk of CC(C)NCC(O)COc1ccc(CC(=O)O)cc1 (centres unmarked) , please.
Result: 82.6

---

target: recombinant 2D6 enzymes (Homo sapiens, UniProt P10635); settings: 60 min, 1 μM
Sequence (P10635 whole entry): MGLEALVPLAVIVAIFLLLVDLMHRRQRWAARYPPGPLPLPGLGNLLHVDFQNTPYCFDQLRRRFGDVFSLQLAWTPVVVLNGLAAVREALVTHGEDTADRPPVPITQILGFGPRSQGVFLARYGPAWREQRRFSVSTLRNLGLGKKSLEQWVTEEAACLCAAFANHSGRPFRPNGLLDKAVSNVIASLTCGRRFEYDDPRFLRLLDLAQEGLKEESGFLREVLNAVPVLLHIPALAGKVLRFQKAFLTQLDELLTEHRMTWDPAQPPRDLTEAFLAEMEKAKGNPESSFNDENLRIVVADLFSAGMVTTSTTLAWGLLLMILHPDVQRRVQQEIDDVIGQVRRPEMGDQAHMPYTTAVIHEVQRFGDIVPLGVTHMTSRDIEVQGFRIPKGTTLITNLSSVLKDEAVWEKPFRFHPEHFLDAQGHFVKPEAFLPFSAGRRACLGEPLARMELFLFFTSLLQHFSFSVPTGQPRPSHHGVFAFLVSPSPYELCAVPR
Consider the following molecules; for each one, report its Relative peak area, 2D6, H.

- molecule: "NCC(O)COc1ccc(CCO)cc1 (centres unmarked) [M3]"
  readout-name: "Relative peak area, 2D6, H"
  data-value: "1.6%"
- molecule: "CC(C)NCC(O)COc1ccc(C(=O)O)cc1 (centres unmarked) [M9]"
  readout-name: "Relative peak area, 2D6, H"
  data-value: "1.7%"
- molecule: "CC(C)NCC(O)COc1ccc(CCO)cc1 (centres unmarked) [M13, O-desmethyl-metoprolol]"
  readout-name: "Relative peak area, 2D6, H"
  data-value: "22.8%"
- molecule: "COCCc1ccc(OCC(O)CN)cc1 (centres unmarked) [M18]"
  readout-name: "Relative peak area, 2D6, H"
  data-value: "6.4%"

Request: Quick check: Relative peak area, 2D6, H of COCC(O)c1ccc(OCC(O)CNC(C)C)cc1 (stereo not drawn) [M10, α-hydroxy-metoprolol] ?
Result: 20.1%

---

Tested on: plateable dog hepatocytes
Test: Metabolite identification in plateable dog hepatocytes
Type: in vitro ADME
Settings: 10 μM metoprolol, 72 hours
Description: Cryopreserved rat, dog, monkey and human hepatocytes were thawed by immersing vials in a pre-warmed 37 °C water bath. The cell pellets were then transferred to thawing medium and centrifuged to isolate viable cells. […] The residues were reconstituted in acetonitrile/water (1:9 volume ratio) with 0.1 % formic acid and analysed LC-HRMS. […] Hepatocyte viability data was expressed as mean±SD.
readout-name: Relative peak area, plateable hepatocytes, D (%)
Answers are plain numbers, in %.

Some entries whose results are on file:
- compound: "CC(C)NCC(O)COc1ccc(CC(=O)O)cc1 (centres unmarked) [M17, metoprolol acid]"
  unit-info: "%"
  data-value: 19.9
- compound: "COCCc1ccc(OCC(O)CN)cc1 (centres unmarked) [M18]"
  unit-info: "%"
  data-value: 5.8

Report Relative peak area, plateable hepatocytes, D for every entry below.
1. COCC(O)c1ccc(OCC(O)CNC(C)C)cc1 (stereo not drawn) [M10, α-hydroxy-metoprolol]
2. NCC(O)COc1ccc(CCO)cc1 (centres unmarked) [M3]
3. CC(C)NCC(O)COc1ccc(CCO)cc1 (centres unmarked) [M13, O-desmethyl-metoprolol]

Result:
9.4
0.7
20.5

---

So I've got a bunch of molecules here, and I need their Relative peak area, plateable hepatocytes, R values.
tested on: plateable rat hepatocytes; experiment: Metabolite identification in plateable rat hepatocytes; assay type: in vitro ADME; details: 10 μM metoprolol, 72 hours
One number for each entry, in %.

Use the examples below as a reference point.
- molecule: "CC(C)NCC(O)COc1ccc(CC(=O)O)cc1 (centres unmarked) [M17, metoprolol acid]"
  data-value: 57.2
- molecule: "CC(C)NCC(O)COc1ccc(CCO)cc1 (centres unmarked) [M13, O-desmethyl-metoprolol]"
  data-value: 3.8
- molecule: "COCCc1ccc(OCC(O)CN)cc1 (centres unmarked) [M18]"
  data-value: 0.1

# batch: return Relative peak area, plateable hepatocytes, R for each of the 2 molecules below
1. CC(C)NCC(O)COc1ccc(C(=O)O)cc1 (centres unmarked) [M9]
2. COCC(O)c1ccc(OCC(O)CNC(C)C)cc1 (stereo not drawn) [M10, α-hydroxy-metoprolol]

Result:
[0.4, 24.4]

This collection of values is drawn from paper PMC12662248.
